protocol: NCI Yeast Anticancer Drug Screen. Data for the mec2-1 strain (AID 157)
assaySetup: S. cerevisiae mec2-1 strain, at 50.0 µM, active compounds read high
This is part of a sample that, as a whole, favours compounds with a hit. Of some 79,000 tested, about 15% had one in any assay.
measurementLabel: growth inhibition (%)
One number for each entry, in %.

Example cases with answers are listed next.
{"columns": ["molecule", "valueUnit", "growth inhibition"],
 "data": [
  ["CSc1n[nH]c(N)c1C(=O)Nc1ccc(C)cc1", "%", 10.8],
  ["CN(C)S(=O)(=O)c1ccc(CCc2ccc(S(=O)(=O)N(C)C)cc2)cc1", "%", 2.65],
  ["O=C(O)c1cc(C(=O)O)cc(S(=O)(=O)NCCO)c1", "%", -10.5],
  ["CCCN(CCCC(NC(C)=O)C(=O)NCc1ccccc1)C(=O)N(C)N=O (stereo unspecified)", "%", -24.8],
  ["CON(C)c1nc(N)c(C#N)c(C#N)c1C#N", "%", -23.7]
]}

Record growth inhibition per entry; entries follow.
1. CCCCCCCCCCCCCCCCOc1ccc(S(=O)(=O)N/N=c2/sc(-c3ccccc3Cl)nn2C)cc1C(=O)O
2. OCCNCc1ccc2c(c1)OCO2
3. CC(=O)OC1C(C)OC(OC(=O)C2CCC3C(C2)OC2(CC(OC(=O)/C=C/c4ccccc4)C(C)CO2)C32CO2)C(OC2OC(C)C(O)C(O)C2O)C1O (stereo unspecified)
4. CC(=O)OCc1cc2c(cc1CNCc1ccccc1)OCO2
5. CCOc1cc2ccc3c4cc(OC)c(OC)cc4cnc3c2cc1OCC
6. Cc1ccc(C(C)C)cc1NC=O

Result:
-20.2
3.85
-16.8
-2.15
-17.4
-13.3

---

protocol: NCI Yeast Anticancer Drug Screen. Data for the mlh1 rad18 strain (AID 175)
assaySetup: S. cerevisiae mlh1 rad18 strain growth inhibition; at 50.0 µM; active compounds read high
The panel holds about 79,000 compounds, 15% with a hit somewhere; the sample as a whole holds those more often. Calls of active or inactive are those of the source. Rule as the data show it: active = growth inhibition above about 70%; inactive = the rest.
So I've got a bunch of compounds here, and I need their growth inhibition values.

Example cases with answers are listed next.
{"columns": ["compound", "testValue"],
 "data": [
  ["N#C/C(=C\\c1c(S(=O)(=O)O)sc2ccccc12)C(N)=O (tested in a mixture with another compound)", "21.8% (inactive)"],
  ["CCCCN(CCCC)CC(CC)N(CCCC)CCCC (stereo not drawn)", "7.35% (inactive)"],
  ["CC#CCCCC1(C)CCNC1=S (stereo not drawn)", "24.6% (inactive)"],
  ["C/C(CC(=O)Nc1cccc(Cl)c1C)=N\\NC(=O)c1ccncc1", "0.95% (inactive)"],
  ["CCC(=N\\NC(=S)NC)/C(C)=N\\NC(=S)NC", "-14.2% (inactive)"]
]}

Record growth inhibition per entry; entries follow.
1. CC(C)Oc1ccc(C(N)=S)c2ccccc12
2. CS(=O)(=O)OC1COCOC1C1OCOCC1OS(C)(=O)=O (stereo not drawn)

Result:
1. 14.1% (inactive)
2. -0.55% (inactive)

---

protocol: NCI Yeast Anticancer Drug Screen. Data for the sgs1 mgt1 strain (AID 161);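 note: 0% = growth of cultures given vehicle only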
assaySetup: S. cerevisiae sgs1 mgt1 strain, at 50.0 µM, active compounds read high
The panel holds about 79,000 compounds, 15% with a hit somewhere; the sample as a whole holds those more often.
So I've got a bunch of compounds here, and I need their growth inhibition values.
Numbers only, in %.

Example cases with answers are listed next.
{"columns": ["compound", "testValue"],
 "data": [
  ["COc1ccc(-n2c(N)c(C#N)c(C#N)c2-c2ccccc2)cc1", -16.6],
  ["O=C(CCCC(=O)NNC(=O)Nc1cccc(Cl)c1)NNC(=O)Nc1cccc(Cl)c1", -10.9],
  ["CC(C)(C)/[N+]([O-])=C/C1(C2(/C=[N+](\\[O-])C(C)(C)C)Cc3ccccc3C2=O)Cc2ccccc2C1=O (stereo not given)", 3.05],
  ["Cc1nc(C(F)(F)F)cc(=O)[nH]1", 15.7],
  ["O=C(CN1C(=O)c2ccccc2C1=O)Oc1ccccc1", 1.1],
  ["CSC(C1c2ccccc2N(C)C2=NC(=O)N(C)C(=O)C21Cl)S(=O)(=O)c1ccc(C)cc1 (stereo not given)", 27.4],
  ["O=C(c1ccccc1)C1C(/C=C/c2ccccc2)C(C(=O)c2ccccc2)C1/C=C/c1ccccc1 (stereo not given)", 11.8],
  ["OC(CCN1CC2CCC(CC2)C1)(Cc1ccccc1)c1ccc(F)cc1 (stereo not given)", 23.1],
  ["COC(=O)c1nc2c(n(C)/c1=N/C(=O)Nc1ccccc1)CCCC2", 4.25]
]}

With those in mind, consider the next compound.
Problem: Look at this compound and give its reported growth inhibition. O=C(Nc1cccc(O)c1)c1ccc([N+](=O)[O-])cc1
Result: 14.4
